Parameter self-cleavage: see the listing below.
B1: Osa-1-4 twister ribozyme (parent)
chain: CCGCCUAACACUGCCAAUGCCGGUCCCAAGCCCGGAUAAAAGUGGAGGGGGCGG

- Variants of: B1
- assay.remarks: self-cleavage, relative activity (ratio to wild type); higher = more cleavage; co-transcriptional
Give the figure only, with no unit attached.

A39U C21G | 0.07
A17C C20U | 0.78
A17U G51A | 0.67
G34U G53A | 0.27
A46G G44A | 0.05

Record summary for A8U G50C : reported self-cleavage = 0.24

For G42U U43A the variant record lists self-cleavage as 0.08

Short answer for C32A C33G : self-cleavage was 0.03

The variant identified as A17C C33U registered its self-cleavage at 0.16

Lab note: measured self-cleavage of C15G G51U was 0.08

variant C11U U18A , self-cleavage observed: 0.85
